# MEASURED_ON: Nucleoprotein (Lymphocytic choriomeningitis virus (strain Armstrong)) (UniProt P09992)
# Sequence (P09992 whole entry, looked up): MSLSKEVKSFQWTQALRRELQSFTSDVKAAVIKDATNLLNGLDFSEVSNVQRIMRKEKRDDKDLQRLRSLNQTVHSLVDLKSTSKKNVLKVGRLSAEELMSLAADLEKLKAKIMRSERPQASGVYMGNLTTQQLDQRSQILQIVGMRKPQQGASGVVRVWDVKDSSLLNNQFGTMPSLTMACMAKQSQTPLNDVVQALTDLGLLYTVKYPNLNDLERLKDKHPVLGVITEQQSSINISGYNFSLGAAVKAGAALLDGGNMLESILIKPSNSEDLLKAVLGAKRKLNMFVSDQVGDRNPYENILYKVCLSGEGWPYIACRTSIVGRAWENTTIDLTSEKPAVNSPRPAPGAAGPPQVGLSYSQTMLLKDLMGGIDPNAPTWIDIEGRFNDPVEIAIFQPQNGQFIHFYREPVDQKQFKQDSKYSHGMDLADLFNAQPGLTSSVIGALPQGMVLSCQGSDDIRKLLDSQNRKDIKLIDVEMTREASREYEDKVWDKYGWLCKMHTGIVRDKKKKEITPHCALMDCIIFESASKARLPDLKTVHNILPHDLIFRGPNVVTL
# METHOD: qHTS for Inhibitors of the Functional Ribonucleoprotein Complex (vRNP) of Lymphocytic Choriomeningitis Arenaviruses (LCMV): LCMV Primary Screen - GLuc reporter signal (AID 1347086); further: nearly all actives have a fitted effect of over 70% in size
# CONDITION_CONTEXT: LCMV minigenome vRNP cell assay, Gaussia luciferase reporter; series mostly up to 57.5 µM
Results filed as inconclusive are left out. The source made the active and inactive calls. The call rests on the fitted dose curve.
Possible outcomes: active, inactive

{"columns": ["MOLECULE", "CLASS_ASSIGNMENT"],
 "data": [
  ["Nc1ncnc2c1ncn2[C@@H]1O[C@H](COP(=O)(O)OP(=O)(O)OP(=O)(O)OP(=O)(O)OC[C@@H]2O[C@H](n3cnc4c(N)ncnc43)[C@@H](O)[C@H]2O)[C@@H](O)[C@H]1O", "inactive"],
  ["O=C(O)Cn1nnc(-c2cc(N3CCC(Oc4cc(F)ccc4Br)CC3)no2)n1", "active"],
  ["COc1cccc(OC)c1", "inactive"],
  ["CC(C)c1cc(C(=O)N2Cc3ccc(CN4CCN(C)CC4)cc3C2)c(O)cc1O", "active"],
  ["CC1=C[C@@H]2c3cccc4[nH]cc(c34)C[C@H]2N(C)C1", "inactive"],
  ["CCCCCCCCCCCCCCCCCCNC(=O)OCC(COP(=O)([O-])OCC[n+]1ccsc1)OC (stereo not drawn)", "inactive"],
  ["CN(C)CC(=O)N1CCC(c2ccc(NC(=O)c3ncc(C#N)[nH]3)c(C3=CCCCC3)c2)CC1", "inactive"],
  ["COC(=O)C1=CO[C@@H](O)[C@@H]2C(CO)=CC[C@H]12", "inactive"],
  ["O=C1NC(=O)/C(=C/c2ccc(-c3ccc(F)cc3O)o2)S1", "inactive"],
  ["C[C@]12CCC(=O)C=C1CC[C@@H]1[C@H]2[C@@H](O)C[C@@]2(C)[C@H]1CC[C@]2(O)C(=O)CO", "inactive"],
  ["CCCCCCCCCCCCCCCC(=O)OC(CC(=O)O)C[N+](C)(C)C (stereo not drawn)", "inactive"],
  ["O=C1NCCc2[nH]c(-c3ccncc3)cc21", "active"],
  ["COc1ccc2c(c1)CC1c3c(cc4c(c3-2)OCO4)CC[N+]1(C)[O-] (stereo not drawn)", "inactive"],
  ["CN1CCCN(C(=O)c2cccc(-c3ccc(C=C4C(=O)Nc5ccc(Cl)cc54)o3)c2)CC1", "inactive"],
  ["NO", "inactive"],
  ["COc1cc2c(OC(C)=O)c3c(c(-c4ccc5c(c4)OCO5)c2cc1OC)C(=O)OC3", "inactive"],
  ["COc1cc2c(c(OC)c1CC=C(C)C)C[C@H](c1ccc(O)cc1O)CO2", "inactive"],
  ["NC(=O)C(=O)O", "inactive"],
  ["Cc1nc(C(N)=O)nc2ccccc12", "inactive"],
  ["COc1ccc([C@@H]2CC(=O)c3c(O)cc(O[C@@H]4O[C@H](CO)[C@@H](O)[C@H](O)[C@H]4O[C@@H]4O[C@@H](C)[C@H](O)[C@@H](O)[C@H]4O)cc3O2)cc1", "inactive"],
  ["COc1ccc(C(=O)CC2(O)C(=O)Nc3c(Cl)ccc(Cl)c32)cc1 (stereo not drawn)", "active"],
  ["CN(C)c1nc(Cc2ccc(NC(=O)c3ccc4ccccc4c3)cc2)nc(Cl)c1CC(=O)O", "inactive"],
  ["O=C1c2ccccc2-c2n[nH]c3cccc1c23", "inactive"],
  ["COc1cc2c(cc1OC)-c1cc3ccc4c(c3c[n+]1CC2)OCO4", "inactive"],
  ["O=[N+]([O-])c1c(Cl)cccc1-c1c[nH]cc1Cl", "inactive"],
  ["CN1Cc2sccc2C(c2ccc(O)c(O)c2)C1 (stereo not drawn)", "inactive"],
  ["NC(N)=NCCCCN=C(N)N", "inactive"],
  ["CN1CCc2cc3c(cc2C1)OCO3", "inactive"],
  ["C/C(=C/C=C/[C@@H](C)C(=O)O)[C@H]1CN[C@H](C(=O)O)[C@H]1CC(=O)O", "inactive"],
  ["O=c1oc(Cl)c(Cl)c2ccccc12", "inactive"],
  ["CCCCCCC[C@@H](C/C=C/CCC(=O)O)OC", "inactive"],
  ["CC(C)C[C@H](CC(=O)O)C(=O)N[C@@H](Cc1c[nH]c2ccccc12)C(=O)N[C@@H](C)c1ccccc1", "inactive"],
  ["C=CCCCCCCCCCCCC", "inactive"],
  ["CC12C=CC(=O)C=C1CCC1C2CCC2(C)C(C(=O)CO)CCC12 (stereo not drawn)", "inactive"],
  ["CC1(C)CCC(NC(=O)[C@@H](N)CCC(=O)O)CC1", "inactive"],
  ["O=S(=O)(c1cccc2c(I)cccc12)N1CCCNCC1", "inactive"],
  ["C[C@@H](O)[C@H]1C(=O)N2C(C(=O)OCOC(=O)C(C)(C)C)=C(SC3CN(C4=NCCS4)C3)[C@H](C)[C@H]12", "inactive"],
  ["O=C1Nc2ccc(I)cc2C1=Cc1cc(Br)c(O)c(Br)c1", "inactive"],
  ["CC(C)NC[C@@H](C(=O)N1CCN(c2ncnc3c2[C@H](C)C[C@H]3O)CC1)c1ccc(Cl)cc1", "active"],
  ["C[N+](C)(C)C[C@H](O)CC(=O)[O-]", "inactive"],
  ["O=C(O)[C@@H]1Cc2c([nH]c3ccccc23)C2CCC(=O)N21 (stereo partly drawn)", "inactive"],
  ["CCCCCCCC/C=C\\CCCCCCCC(=O)NCCO", "inactive"],
  ["COC(=O)c1ccc(OC)cc1", "inactive"]
]}

====

# System: TAB113
# METHOD: qHTS profiling for inhibitors of Plasmodium falciparum proliferation (AID 504749); further: nearly all actives have a fitted effect of over 60% in size
# CONDITION_CONTEXT: P. falciparum in erythrocytes, SYBR Green DNA, 72 h; series mostly up to 28.7 µM
# Protocol: NIH National Institute of Allergy and Infectious Diseases [NIAID] NIH Chemical Genomics Center [NCGC] […] Because mature erythrocytes lack DNA, only Plasmodium-derived DNA is detected. NCGC Assay Protocol Summary: The SYBR Green viability assay was adapted from a method described previously (Plouffe et al., 2008). […] The following morning, fluorescence intensity at 485(14) nm excitation and 535(25) nm emission wavelengths was measured on an EnVision (Perkin Elmer) plate reader. […]
Inconclusive results are not listed. The source made the active and inactive calls. Calls follow the shape of the dose curve; as a rule, active = well fitted inhibition curve with a large enough effect; inconclusive = small, poorly fitted or top-dose-only effect; inactive = flat fitted curve, though single readings scatter.
Possible outcomes: 1 (yes) (active), 0 (no) (inactive)

{"columns": ["COMPOUND", "CLASS_ASSIGNMENT"],
 "data": [
  ["CC(C)[C@@]1(NC(=O)[C@H]2CC3c4cccc5[nH]cc(c45)C[C@H]3N(C)C2)O[C@@]2(O)C3CCCN3C(=O)[C@@H](Cc3ccccc3)N2C1=O (stereo partly drawn)", "1 (yes)"],
  ["O=C(O)c1ccccc1-c1c2cc(Br)c(=O)cc-2oc2[c]([Hg])c(O)c(Br)cc12", "0 (no)"],
  ["CO[C@H]1[C@@H](O)CC(OC2[C@@H](O)CC(OC3[C@@H](O)C[C@H](OC4CC[C@@]5(C)C(CCC6C5CC(O)[C@]5(C)[C@H](C7=CC(=O)OC7)CCC65O)C4)O[C@@H]3C)O[C@@H]2C)O[C@@H]1C (stereo partly drawn)", "0 (no)"]
]}

====

# MEASURED_ON: Glucocorticoid receptor (Homo sapiens)
# METHOD: GR-EFC Redistribution (AID 451); further: potency means the concentration at half of the fitted maximal effect
# CONDITION_CONTEXT: CHO-K1 GR-EFC translocation, beta-gal luminescence, 2 h
Activity calls are given as the source filed them. Calls follow the shape of the full dose curve.
The reader will find reported Potency values listed item by item below.

{"columns": ["SMILES_TEXT", "Potency"],
 "data": [
  ["Oc1ccc2c3c1O[C@H]1c4[nH]c5c(c4C[C@@]4(O)[C@@H](C2)N(CC2CC2)CC[C@]314)C[C@]1(O)[C@H]2Cc3ccc(O)c4c3[C@@]1(CCN2CC1CC1)[C@@H]5O4", "> 46 µM (inactive)"],
  ["CCN1C[C@]2(COC(=O)c3ccccc3N3C(=O)C[C@H](C)C3=O)CC[C@H](OC)[C@@]34[C@@H]5C[C@H]6[C@H](OC)[C@H]5[C@](O)(C[C@@H]6OC)[C@@](O)([C@@H](OC)[C@@H]23)[C@@H]14", "> 46 µM (inactive)"],
  ["CCCN[C@@H]1CCc2c(OC)cccc2[C@@H]1C", "> 46 µM (inactive)"],
  ["O=C(O)c1ccccc1-c1c2cc(Br)c(=O)cc-2oc2[c]([Hg])c(O)c(Br)cc12", "> 20.6 µM (inactive)"]
]}

====

# System: HeLa
# METHOD: Primary qHTS to identify gynecologic anti-cancer compounds using libraries of approved drugs and bioactive compounds (AID 1345084); further: nearly all actives have a fitted effect of over 55% in size
# CONDITION_CONTEXT: Gynecologic cancer cell panel viability, ATPlite luminescence, 48 h; series mostly up to 57.5 µM
Results filed as inconclusive are left out. Active and inactive are the calls of the source. Calls come from the whole dose curve; as a rule, active = well fitted cell-killing curve with a large enough effect; inconclusive = small, poorly fitted or top-dose-only effect, or effect the other way; inactive = flat fitted curve, though single readings scatter.
Possible outcomes: yes (1) for active, no (0) for inactive

{"columns": ["COMPOUND", "CLASS_ASSIGNMENT"],
 "data": [
  ["NNC(=O)c1nn(Cc2ccc(Cl)cc2Cl)c2ccccc12", "no (0)"],
  ["CC(C)[C@H](NC(=O)c1nn(Cc2ccc(F)cc2)c2ccccc12)C(N)=O", "no (0)"],
  ["C/C=C(/C)C1C=CC2CC(C)CC(C)C2C1/C(O)=C1\\C(=O)NC(CC(C)(O)C(=O)O)C1=O (centres undefined)", "no (0)"],
  ["C[C@H]1CCC[C@H](O)CCC/C=C/c2cc(O)cc(O)c2C(=O)O1", "no (0)"],
  ["CO[C@H]1C[C@H](O[C@H]2CC[C@]3(CO)[C@H]4CC[C@]5(C)[C@@H](C6=CC(=O)OC6)CC[C@]5(O)[C@@H]4CC[C@]3(O)C2)O[C@H](C)[C@H]1O", "yes (1)"],
  ["CN1C[C@@H]2CN(c3ccc(-c4ccccc4)nn3)C[C@@H]2C1", "no (0)"],
  ["COc1ccsc1CNCC[C@@]1(c2ccccn2)CCOC2(CCCC2)C1", "no (0)"],
  ["CN1CCc2cc3c(cc2C1C1OC(=O)c2c1ccc1c2OCO1)OCO3 (centres undefined)", "no (0)"],
  ["CCC1CN2CCC3(C(=O)Nc4cccc(O)c43)C2CC1/C(=C/OC)C(=O)OC (centres undefined)", "no (0)"]
]}
